Measured δ (relative), two-photon action cross section, listed per entry for reference.
experiment: Two-photon (action) cross section; assay type: physicochemical; conditions: relative, MNI-Glu = 1
PROPERTY_NAME: δ (relative), two-photon action cross section

{"MOLECULE": "COc1ccc([N+](=O)[O-])c2c1CCN2C(=O)CC[C@H](N)C(=O)O [MNI-Glu, Methoxynitroindoline-caged L-glutamate, reference compound]", "OBSERVED_MEASUREMENT": 1}
{"MOLECULE": "NCCCC(=O)N1CCc2c(OCC(=O)O)ccc([N+](=O)[O-])c21", "OBSERVED_MEASUREMENT": 1}
{"MOLECULE": "NC(CCC(=O)N1CCc2c(OCC(=O)O)ccc([N+](=O)[O-])c21)C(=O)O (centres unmarked) [CNI-Glu, 4-carboxymethoxy-7-nitroinlinylglutamate]", "OBSERVED_MEASUREMENT": 1}

###

experiment: Basic photochemical properties: one-photon photolysis / quantum yield determination by comparison with MNI-Glu; format: physicochemical
Measured ε, molar extinction coefficient, listed per entry for reference.

{"COMPOUND": "COc1ccc([N+](=O)[O-])c2c1CCN2C(=O)CC[C@H](N)C(=O)O [MNI-Glu, Methoxynitroindoline-caged L-glutamate, reference compound]", "ε, molar extinction coefficient": "4,300 M^−1 cm^−1"}
{"COMPOUND": "NCCCC(=O)N1CCc2c(OCC(=O)O)c([N+](=O)[O-])cc([N+](=O)[O-])c21 [CDNI-GABA]", "ε, molar extinction coefficient": "8,600 M^−1 cm^−1"}
{"COMPOUND": "N[C@@H](CCC(=O)N1CCc2c(OCC(=O)O)c([N+](=O)[O-])cc([N+](=O)[O-])c21)C(=O)O [CDNI-Glu]", "ε, molar extinction coefficient": "8,600 M^−1 cm^−1"}
{"COMPOUND": "NCCCC(=O)N1CCc2c(OCC(=O)O)ccc([N+](=O)[O-])c21 [CNI-GABA]", "ε, molar extinction coefficient": "4,300 M^−1 cm^−1"}
{"COMPOUND": "NC(CCC(=O)N1CCc2c(OCC(=O)O)ccc([N+](=O)[O-])c21)C(=O)O (centres unmarked) [CNI-Glu, 4-carboxymethoxy-7-nitroinlinylglutamate]", "ε, molar extinction coefficient": "4,300 M^−1 cm^−1"}

Data provenance is patent US8642785B2.
